# STUDY TARGET: Jak2 (UniProt O60674)
# Sequence (O60674 whole entry, looked up): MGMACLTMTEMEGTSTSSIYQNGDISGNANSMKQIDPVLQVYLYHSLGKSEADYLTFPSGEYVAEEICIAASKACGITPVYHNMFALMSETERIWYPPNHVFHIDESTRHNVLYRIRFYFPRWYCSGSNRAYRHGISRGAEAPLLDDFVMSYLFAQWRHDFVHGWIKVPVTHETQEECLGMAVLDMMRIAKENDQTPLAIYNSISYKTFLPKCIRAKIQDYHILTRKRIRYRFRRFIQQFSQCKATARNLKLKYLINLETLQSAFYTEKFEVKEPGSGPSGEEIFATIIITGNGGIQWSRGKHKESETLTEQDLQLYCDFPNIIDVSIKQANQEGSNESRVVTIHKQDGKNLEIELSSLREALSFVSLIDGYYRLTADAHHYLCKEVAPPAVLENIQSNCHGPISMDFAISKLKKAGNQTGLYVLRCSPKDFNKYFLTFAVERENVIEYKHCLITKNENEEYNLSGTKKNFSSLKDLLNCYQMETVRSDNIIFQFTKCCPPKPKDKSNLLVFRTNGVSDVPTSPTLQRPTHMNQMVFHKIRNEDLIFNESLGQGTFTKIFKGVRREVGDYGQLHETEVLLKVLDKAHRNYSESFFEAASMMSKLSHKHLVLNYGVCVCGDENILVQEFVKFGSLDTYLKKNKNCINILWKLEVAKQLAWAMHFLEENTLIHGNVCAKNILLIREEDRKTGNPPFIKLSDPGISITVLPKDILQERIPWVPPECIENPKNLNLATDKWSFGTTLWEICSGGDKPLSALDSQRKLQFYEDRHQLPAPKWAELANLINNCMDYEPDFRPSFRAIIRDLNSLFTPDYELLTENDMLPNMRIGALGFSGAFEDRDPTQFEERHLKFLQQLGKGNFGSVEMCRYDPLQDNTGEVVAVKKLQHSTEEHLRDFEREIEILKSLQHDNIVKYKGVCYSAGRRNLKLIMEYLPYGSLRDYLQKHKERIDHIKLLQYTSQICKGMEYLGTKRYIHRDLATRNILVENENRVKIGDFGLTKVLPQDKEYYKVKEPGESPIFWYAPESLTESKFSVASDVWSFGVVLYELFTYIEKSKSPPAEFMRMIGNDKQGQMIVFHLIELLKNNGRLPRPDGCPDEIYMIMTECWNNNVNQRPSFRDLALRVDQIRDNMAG
# TEST DETAILS: phosphorylation enrichment, bacterial display (enrichment ratio); higher = better substrate or ligand; peptides without Tyr show the background;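 also: 11-residue human phosphosite peptides and single-mutation variants displayed on the E. coli surface, counted by deep sequencing, each peptide's frequency after selection divided by its frequency in the unselected input library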;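 also: frequency after pTyr selection over input frequency; kinase dosed for 20-30% of maximal phosphorylation in three min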
Label scheme for phosphorylation enrichment: low class (below 0.8), middle class (0.8 to below 1), high class (1 or more)

Which bin should I file DNEALYDICFC [TUBB3_Y208_R213C] under? high class

Request: SVVVPYEPPDV [TP53_Y220_E224D] low class

Thanks! And ASTHIYQIMNH [ITK_Y588_V587I] ? low class

Note, next up: RPAPQYPHQVP [ADAM12_Y895] high class

# iterate: IGMIIYFARKA [VCAM1_Y718] middle class

Next entry: TLEKYYFAFPG [SLC1A1_Y51_F50Y] high class

Next up: SEDSEYYRAFE [CASQ2_Y178_K180R] high class

Proceed to VIESSYQVAKA [CPT1B_Y534] low class

Then YDRREYSRFEK [ITGB7_Y758] ? middle class
